Tested on: AncSZ
Test: phosphorylation enrichment, bacterial display (enrichment ratio); higher = better substrate or ligand; peptides without Tyr show the background
Label 1 for high-side phosphorylation enrichment (at or above 1) and -1 for low-side phosphorylation enrichment (below it).

>  <residue_codes>
SIKDKYVTVLF [KCNH2_Y611_A614V_YF]

>  <label_class>
-1

$$$$
>  <residue_codes>
KYLENYYDLEK [MMP3_Y41_K45E]

>  <label_class>
1

$$$$
>  <residue_codes>
HNVPICEGYAL [ACTC1_Y168_Y168C]

>  <label_class>
-1

$$$$
>  <residue_codes>
FADIAYNFRDG [PAH_Y166_H170D_YF]

>  <label_class>
-1

$$$$
>  <residue_codes>
NLGQQYNSPQE [UMPS_Y432]

>  <label_class>
-1

$$$$
>  <residue_codes>
ANYTEYVATRW [CDKL5_Y171]

>  <label_class>
1

$$$$
>  <residue_codes>
TIEDSYRKQVV [KRAS_Y40]

>  <label_class>
-1

$$$$
>  <residue_codes>
LLPNAYIFVVQ [L1CAM_Y418_A415P_YF]

>  <label_class>
1

$$$$
>  <residue_codes>
PAIFTYDEFKK [COL8A2_Y648_T645I_YF]

>  <label_class>
1

$$$$
>  <residue_codes>
WIPNQYPIISE [NOG_Y222_I220N]

>  <label_class>
-1

$$$$
>  <residue_codes>
QAQMDYRRLQP [MPL_Y591]

>  <label_class>
-1

$$$$
>  <residue_codes>
EVEPTYVVLYD [ERCC4_Y577_R576T]

>  <label_class>
1

$$$$

----------
Test system: c-Abl (mouse)
Assay: phosphorylation enrichment, bacterial display (enrichment ratio); higher = better substrate or ligand; peptides without Tyr show the background
Categories are assigned from the measured phosphorylation enrichment using these intervals: 1 (below 0.7), 2 (0.7 to below 0.9), 3 (0.9 or more)

>  <residue_codes>
YADGVYQALEE [DUOX2_Y70]

>  <label_class>
3

$$$$
>  <residue_codes>
LSSEMYVKSYT [F5_Y2149]

>  <label_class>
2

$$$$
>  <residue_codes>
DFGSGYPNDPK [RNASEH2A_Y210_YF]

>  <label_class>
1

$$$$
>  <residue_codes>
MKALGYFAVVK [OPA1_Y498_T503K]

>  <label_class>
2

$$$$
>  <residue_codes>
VVKLTYNENDN [CAMKK2_Y183_A182T]

>  <label_class>
1

$$$$
>  <residue_codes>
CPFNLYAEQLS [HGD_Y40_YF]

>  <label_class>
2

$$$$
>  <residue_codes>
GVASDYKCIDP [VPS13B_Y1991]

>  <label_class>
1

$$$$
>  <residue_codes>
FDGKDYIALNE [HLA-A_Y147_YF]

>  <label_class>
1

$$$$
>  <residue_codes>
DHLASYLDKVR [KRT10_Y160_R156H]

>  <label_class>
1

$$$$
>  <residue_codes>
MHLRQYKLLGG [GNAS_Y391_E392K]

>  <label_class>
1

$$$$
>  <residue_codes>
YECKWYIPLTD [BCR_Y756_D752E]

>  <label_class>
3

$$$$
>  <residue_codes>
EVEPTYVVLYD [ERCC4_Y577_R576T]

>  <label_class>
2

$$$$
>  <residue_codes>
FRVDCYKNFVA [FHL1_Y213_C209R_YF]

>  <label_class>
3

$$$$
>  <residue_codes>
IMITDYLLLFR [INSR_Y87]

>  <label_class>
2

$$$$
>  <residue_codes>
SVMAEYGLYAA [VSX2_Y219_G223A]

>  <label_class>
2

$$$$
>  <residue_codes>
PAIFTYDEFKK [COL8A2_Y648_T645I_YF]

>  <label_class>
3

$$$$
>  <residue_codes>
GGRIDYIAGLV [APRT_Y60_D65V]

>  <label_class>
1

$$$$
>  <residue_codes>
HAVYVCDICHV [TWNK_Y508_Y508C]

>  <label_class>
3

$$$$
>  <residue_codes>
FSQQTYCRVSN [ABCD1_Y180_Y181C]

>  <label_class>
2

$$$$
>  <residue_codes>
EATKGYLDDPT [G6PD_Y322]

>  <label_class>
2

$$$$
>  <residue_codes>
TRSYKYLLLSM [NF1_Y491]

>  <label_class>
2

$$$$
>  <residue_codes>
FRKNTYNVKST [SYNE2_Y575_I574T_YF]

>  <label_class>
1

$$$$
>  <residue_codes>
QRIFQYIRSRF [DYRK1B_Y273_Q275R_YF]

>  <label_class>
3

$$$$
>  <residue_codes>
ENGPFYASFPP [GDAP2_Y488_T489A_YF]

>  <label_class>
3

$$$$
>  <residue_codes>
LDLSYYPTSSS [EMD_Y182]

>  <label_class>
3

$$$$
>  <residue_codes>
SCRENYSFSEE [LEMD3_Y258_D260Y_YF]

>  <label_class>
2

$$$$

----------
Biological target: SHP2-C SH2
Assay: SH2 binding enrichment of the phosphorylated peptide, bacterial display (enrichment ratio); higher = better substrate or ligand; peptides without Tyr show the background
SH2 binding enrichment for assorted sequences
measure: SH2 binding enrichment

>  <residue_codes>
TLEKFYFAFPG [SLC1A1_Y51]

>  <test_system>
SHP2-C SH2

>  <readout_value>
0.92

$$$$
>  <residue_codes>
ARVANYQRDGP [CAT_Y386]

>  <test_system>
SHP2-C SH2

>  <readout_value>
0.342

$$$$
>  <residue_codes>
KLADIYQAELR [GFAP_Y116_V115I]

>  <test_system>
SHP2-C SH2

>  <readout_value>
0.561

$$$$
>  <residue_codes>
YLQEIYNSNNQ [FGG_Y140]

>  <test_system>
SHP2-C SH2

>  <readout_value>
0.77

$$$$
>  <residue_codes>
TINPIHEHVGY [CHN1_Y143_Y143H]

>  <test_system>
SHP2-C SH2

>  <readout_value>
0.87

$$$$
>  <residue_codes>
SEKVVYRRFTE [NCF1_Y41]

>  <test_system>
SHP2-C SH2

>  <readout_value>
0.44

$$$$
>  <residue_codes>
KASVDYIRKLQ [MITF_Y360]

>  <test_system>
SHP2-C SH2

>  <readout_value>
0.899

$$$$
>  <residue_codes>
FKPENYRRLDI [VHL_Y175_V170F]

>  <test_system>
SHP2-C SH2

>  <readout_value>
0.923

$$$$
>  <residue_codes>
VLICAYLLHRG [PTEN_Y138_M134L]

>  <test_system>
SHP2-C SH2

>  <readout_value>
1.31

$$$$
>  <residue_codes>
RLLVVYPWTQK [HBG1_Y36_R41K]

>  <test_system>
SHP2-C SH2

>  <readout_value>
2.19

$$$$
>  <residue_codes>
ILTFKYLQIPM [KIT_Y547_K550I_YF]

>  <test_system>
SHP2-C SH2

>  <readout_value>
1.67

$$$$
>  <residue_codes>
RLLRGHDQSAF [HLA-C_Y137_Y137H_YF]

>  <test_system>
SHP2-C SH2

>  <readout_value>
0.718

$$$$
>  <residue_codes>
EKRDAYVSCLN [GSR_Y150_R153C]

>  <test_system>
SHP2-C SH2

>  <readout_value>
0.934

$$$$
>  <residue_codes>
IRTGIYHGGEP [PIK3CA_Y361_V356I]

>  <test_system>
SHP2-C SH2

>  <readout_value>
0.585

$$$$
>  <residue_codes>
KLSFSYGQALQ [ALDOB_Y302_R304Q]

>  <test_system>
SHP2-C SH2

>  <readout_value>
0.703

$$$$
>  <residue_codes>
EDKSIYRRGAC [PRKCI_Y125_R130C]

>  <test_system>
SHP2-C SH2

>  <readout_value>
0.831

$$$$
>  <residue_codes>
FVFSFYHAFSG [ACTN4_Y265_S262F_YF]

>  <test_system>
SHP2-C SH2

>  <readout_value>
1.31

$$$$
>  <residue_codes>
PLQSEYSSITT [ITGB4_Y1760]

>  <test_system>
SHP2-C SH2

>  <readout_value>
0.57

$$$$
>  <residue_codes>
EEALYYLTRVE [SET_Y119_H118Y]

>  <test_system>
SHP2-C SH2

>  <readout_value>
1.39

$$$$
>  <residue_codes>
TPRNTYKMTSL [MKI67_Y849]

>  <test_system>
SHP2-C SH2

>  <readout_value>
0.891

$$$$
>  <residue_codes>
RLLVVYPSTQR [HBB_Y36_W38S]

>  <test_system>
SHP2-C SH2

>  <readout_value>
2.26

$$$$
>  <residue_codes>
LKLIQYHLTQQ [AKAP4_Y554]

>  <test_system>
SHP2-C SH2

>  <readout_value>
1.31

$$$$
>  <residue_codes>
PEFINYHQHNS [BTK_Y361_L358F]

>  <test_system>
SHP2-C SH2

>  <readout_value>
0.659

$$$$
>  <residue_codes>
IFLENYNAGTF [CFI_Y421_H418L_YF]

>  <test_system>
SHP2-C SH2

>  <readout_value>
0.786

$$$$
>  <residue_codes>
GLVFLYVEKNQ [PRELP_Y156_M157V]

>  <test_system>
SHP2-C SH2

>  <readout_value>
1.19

$$$$
>  <residue_codes>
QRALLYEDTLF [UNC13D_Y56_A59T_YF]

>  <test_system>
SHP2-C SH2

>  <readout_value>
0.82

$$$$
>  <residue_codes>
EPNSRYTYKLE [USH2A_Y3745]

>  <test_system>
SHP2-C SH2

>  <readout_value>
0.768

$$$$
>  <residue_codes>
PLTRSYIREKV [CYP2C8_Y243_A238P]

>  <test_system>
SHP2-C SH2

>  <readout_value>
0.904

$$$$
>  <residue_codes>
HRAVEYLLMGI [RAD23A_Y197_T200M]

>  <test_system>
SHP2-C SH2

>  <readout_value>
1.55

$$$$
>  <residue_codes>
VFAANYFKLLG [ROR2_Y645_D644N_YF]

>  <test_system>
SHP2-C SH2

>  <readout_value>
0.985

$$$$
>  <residue_codes>
PVPKTYDMLNA [PKP2_Y108_K112N]

>  <test_system>
SHP2-C SH2

>  <readout_value>
0.659

$$$$
>  <residue_codes>
ACQGKYTPSGQ [ALDOA_Y343]

>  <test_system>
SHP2-C SH2

>  <readout_value>
0.75

$$$$
>  <residue_codes>
SFPSFYTSHVQ [NEFL_Y443_YF]

>  <test_system>
SHP2-C SH2

>  <readout_value>
1.1

$$$$
>  <residue_codes>
RNLDTYQKRLR [PLA2G2D_Y126]

>  <test_system>
SHP2-C SH2

>  <readout_value>
0.504

$$$$
>  <residue_codes>
SSNLYYRCLTA [CNGA3_Y169_W171C]

>  <test_system>
SHP2-C SH2

>  <readout_value>
0.611

$$$$
>  <residue_codes>
KLIETYSSKNY [PLP1_Y50_F51S]

>  <test_system>
SHP2-C SH2

>  <readout_value>
0.703

$$$$
>  <residue_codes>
CPPKVYELMIA [ABL2_Y515_R519I]

>  <test_system>
SHP2-C SH2

>  <readout_value>
0.658

$$$$
>  <residue_codes>
LITLVYGCSRQ [TMPRSS6_Y290_S288L]

>  <test_system>
SHP2-C SH2

>  <readout_value>
1.04

$$$$
>  <residue_codes>
IRKKYYRAILE [CHD7_Y1218_Q1214R]

>  <test_system>
SHP2-C SH2

>  <readout_value>
0.725

$$$$
>  <residue_codes>
EADRKYEEVAG [TPM3_Y163_R168G]

>  <test_system>
SHP2-C SH2

>  <readout_value>
0.772

$$$$
>  <residue_codes>
LSNPAYCLLLA [DDR1_Y513_R514C]

>  <test_system>
SHP2-C SH2

>  <readout_value>
0.819

$$$$
>  <residue_codes>
NPIGLYSAEIL [LDB3_Y202_T206I]

>  <test_system>
SHP2-C SH2

>  <readout_value>
0.852

$$$$
>  <residue_codes>
GDAMLYYPSVS [GPR143_Y177_A173D]

>  <test_system>
SHP2-C SH2

>  <readout_value>
0.759

$$$$
>  <residue_codes>
EFSNQYKATIG [RAB7A_Y37_K32E]

>  <test_system>
SHP2-C SH2

>  <readout_value>
0.519

$$$$
>  <residue_codes>
LTTPTYGDLNH [TUBB_Y222]

>  <test_system>
SHP2-C SH2

>  <readout_value>
0.748

$$$$
>  <residue_codes>
RKMSSYAFFVQ [HMGB1_Y16_G11R]

>  <test_system>
SHP2-C SH2

>  <readout_value>
1.24

$$$$
>  <residue_codes>
DAHFTYSRYPW [LY75_Y888_D884A]

>  <test_system>
SHP2-C SH2

>  <readout_value>
0.761

$$$$
>  <residue_codes>
LAARFYNWVSF [FLT4_Y1231_YF]

>  <test_system>
SHP2-C SH2

>  <readout_value>
1.61

$$$$
>  <residue_codes>
TVEDHDFEGGI [TKT_Y563_Y563D_YF]

>  <test_system>
SHP2-C SH2

>  <readout_value>
0.515

$$$$
>  <residue_codes>
RVGNMYMRGLS [ABCG8_Y209_V210M]

>  <test_system>
SHP2-C SH2

>  <readout_value>
1.7

$$$$
>  <residue_codes>
YADGVYQALEE [DUOX2_Y70]

>  <test_system>
SHP2-C SH2

>  <readout_value>
0.623

$$$$
>  <residue_codes>
KLADMYGGGED [CDH1_Y876]

>  <test_system>
SHP2-C SH2

>  <readout_value>
0.748

$$$$
>  <residue_codes>
FSQQTYYRVSN [ABCD1_Y180]

>  <test_system>
SHP2-C SH2

>  <readout_value>
0.672

$$$$
>  <residue_codes>
IFGASYVPFAA [RBM47_Y541_YF]

>  <test_system>
SHP2-C SH2

>  <readout_value>
0.932

$$$$
>  <residue_codes>
RRIHSYRCHLW [VHL_Y112_G114C]

>  <test_system>
SHP2-C SH2

>  <readout_value>
0.61

$$$$
>  <residue_codes>
LHRAHYDLCHT [AHSG_Y314_R317C]

>  <test_system>
SHP2-C SH2

>  <readout_value>
0.935

$$$$
>  <residue_codes>
CEHRGFLFLAI [TEK_Y897_Y897F_YF]

>  <test_system>
SHP2-C SH2;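 note: peptide library displayed on the E. coli surface as eCPX fusions, selected cells deep-sequenced, score is each peptide's frequency after selection divided by its frequency in the input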

>  <readout_value>
0.996

$$$$

This collection of values is drawn from the supplement of paper PMC10065799.
